# tested-target: recombinant GAC (human GAC, residues 72–603) (Homo sapiens)
# Sequence (O94925 72-598 isoform O94925-3 limits assumed): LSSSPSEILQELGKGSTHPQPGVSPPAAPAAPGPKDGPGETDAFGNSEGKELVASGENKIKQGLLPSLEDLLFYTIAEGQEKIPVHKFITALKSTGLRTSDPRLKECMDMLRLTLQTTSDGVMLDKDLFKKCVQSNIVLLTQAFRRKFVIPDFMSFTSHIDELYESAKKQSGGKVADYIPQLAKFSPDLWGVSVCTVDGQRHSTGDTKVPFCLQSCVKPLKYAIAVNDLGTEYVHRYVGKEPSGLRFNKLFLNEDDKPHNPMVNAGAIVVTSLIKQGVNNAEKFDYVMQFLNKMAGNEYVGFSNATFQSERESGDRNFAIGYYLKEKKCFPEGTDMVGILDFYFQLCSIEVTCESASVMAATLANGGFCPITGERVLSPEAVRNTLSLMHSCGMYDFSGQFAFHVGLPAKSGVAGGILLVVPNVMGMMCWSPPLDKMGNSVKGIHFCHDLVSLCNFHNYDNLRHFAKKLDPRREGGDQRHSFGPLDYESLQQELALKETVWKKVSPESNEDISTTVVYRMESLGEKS
# measurement-protocol: biochemical assay against recombinant GAC
# stated-conditions: LiPE=pIC50-logP, from GAC IC50
Kindly state LiPE for each of the entries shown.
One number for each entry.

Record excerpt, results attached:
compound: O=C(Cc1ccccc1)Nc1nnc(OC2CN(c3nnc(NC(=O)Cc4ccccc4)s3)C2)s1 [Compound 14a]
tested-target: recombinant GAC (human GAC, residues 72–603) (Homo sapiens)
LiPE: 3.18
--
compound: O=C(Cc1ccccc1)Nc1nnc(N[C@@H]2CCN(c3nnc(NC(=O)Cc4ccccc4)s3)C2)s1
tested-target: recombinant GAC (human GAC, residues 72–603) (Homo sapiens)
LiPE: 3.78

Batch request: LiPE for each of the following compounds.
1. Nc1nnc(N2CC[C@H](Oc3nnc(NC(=O)Cc4ccccc4)s3)C2)s1 [Compound 16b]
2. O=C(Cc1ccccc1)Nc1nnc(OCC2CCN(c3nnc(NC(=O)Cc4ccccc4)s3)CC2)s1 [Compound 14h]
3. O=C(Cc1ccccc1)Nc1nnc(O[C@@H]2CCN(c3nnc(NC(=O)Cc4ccccc4)s3)C2)s1 [Compound 14c]
4. O=C(Cc1ccccc1)Nc1nnc(OC2CCN(c3nnc(NC(=O)Cc4ccccc4)s3)CC2)s1 [Compound 14d]
5. Nc1nnc(N2CC(Oc3nnc(NC(=O)Cc4ccccc4)s3)C2)s1 [Compound 16a]
6. Nc1nnc(N2CC(Nc3nnc(NC(=O)Cc4ccccc4)s3)C2)s1 [Compound 16e]

Result:
1: 2.81; 2: 2.09; 3: 3.42; 4: 3.36; 5: 4.10; 6: 4.87

Hey, just so you know, these numbers are from paper PMC6300166.
